Tested on: Giardia intestinalis
assayName: Antiparasitic activity against Giardia intestinalis IMSS:0989:1 assessed as inhibition of parasitic growth treated for 48 hrs followed by compound washout and measured after 48 hrs by MTT/PMS dye based colorimetric method
Type: functional, organism-based
assaySetup: Giardia duodenalis, IMSS:0989:1, 48 h
pIC50: −log10 of the molar value.
Entries annotated with measured pIC50
assayMetric: pIC50

• Cc1ncc([N+](=O)[O-])n1CCO [METRONIDAZOLE] = 5.92
• CC(C)c1cc2c(c(O)c1O)[C@]13CCC[C@](C)([C@H](O)OC1=O)[C@@H]3CC2 = 4.20
• CC(=O)Oc1c(C(C)C)cc2c(c1OC(C)=O)[C@]13CCC[C@](C)([C@H](OC(C)=O)OC1=O)[C@@H]3CC2 = 4.32
• CC(C)c1cc2c(c(O)c1O)[C@]13CCC[C@](C)(COC1=O)[C@@H]3CC2 = 4.31
• COc1c(C(C)C)cc2c(c1O)[C@]13CCC[C@](C)([C@H](OC(C)=O)OC1=O)[C@@H]3CC2 = 4.33
• CC[C@H]1CN2CCc3cc(OC)c(OC)cc3[C@@H]2C[C@@H]1C[C@H]1NCCc2cc(OC)c(OC)cc21 [EMETINE] = 6.10
• COc1c(C(C)C)cc2c(c1O)[C@]13CCC[C@](C)([C@H](O)OC1=O)[C@@H]3CC2 = 4.17
• COC(=O)[C@]12CCC[C@](C)(C=O)[C@@H]1CCc1cc(C(C)C)c(OC)c(O)c12 = 4.21
